# Test system: KELLY cells
# protocolDetails: Secondary validation screen of synthetic lethal miRNAs with low dose IC30 chemotherapy, cell viability
# Format: cell-based
# condition: miRNA mimic + vehicle
Listed below: Secondary screen Viability (% of control) Kelly Vehicle values for each entry.

Some solved cases for reference:
hsa-miR-3181 (AUCGGGCCCUCGGCGCCGG; chemistry not given here; listed as Homo sapiens) | 108 % of control
hsa-miR-1321 (CAGGGAGGUGAAUGUGAU; chemistry not given here; listed as Homo sapiens) | 50 % of control
hsa-miR-99b-5p (guide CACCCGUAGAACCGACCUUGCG; chemistry not given here; listed as Homo sapiens) | 67 % of control
hsa-miR-34c-5p (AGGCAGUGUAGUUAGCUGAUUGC; chemistry not given here; listed as Homo sapiens) | 68 % of control
hsa-miR-3151 (GGUGGGGCAAUGGGAUCAGGU; chemistry not given here; listed as Homo sapiens) | 102 % of control

Return Secondary screen Viability (% of control) Kelly Vehicle for the following substance: hsa-miR-485-3p (guide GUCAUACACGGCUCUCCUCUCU; chemistry not given here; listed as Homo sapiens)
85 % of control

Look up and report measured Secondary screen Viability (% of control) Kelly Vehicle for this entry: hsa-miR-100-5p (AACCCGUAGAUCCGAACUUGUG; chemistry not given here; listed as Homo sapiens)
69 % of control
